Attribute: hGLP-1R Potency, 1% HSA, EC50 [pM]
- Test system: human GLP-1 receptor (human, UniProt P43220 24-463)
- Assay explanation: cell-based or functional assay
Numbered stars: 1 amine (or outer) side, 2 acyl side, 3 side chain; on linkers, the order of the positions; unused ones are H or OH. Square brackets hold non-standard residues; d marks the D form. Side chains are listed from the residue outwards. * marks the point of attachment. C18 diacid = O=C(O)CCCCCCCCCCCCCCCCC(=O)*; C16 diacid = O=C(O)CCCCCCCCCCCCCCC(=O)*; γGlu = O=C(O)[C@H](CCC(=O)[*:2])N[*:1]; Chem. 28 = not defined here; AEEA = NCCOCCOCC(=O)O; Aib = CC(C)(N)C(=O)O
Field format: number, assumed pM, no unit text.

Binder | hGLP-1R Potency, 1% HSA, EC50 [pM] [pM]
Compound 79 (peptide) peptide: Y[Aib]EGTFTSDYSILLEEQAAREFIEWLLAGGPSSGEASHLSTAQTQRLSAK([AEEA-AEEA-γGlu-C18 diacid])LHRLATLPRTETGSGSP-NH2 | 168
Compound 91 (peptide) peptide: H[Aib]HGTFTSDYSILLEEQAAREFIEWLLAGGPSSGAGQAPGQAPGASHLSTAQTQRLSAELHRLK([AEEA-AEEA-γGlu-C18 diacid])TLPRTETGSGSP-NH2 | 17.4
Compound 106 (reading uncertain) peptide: H[Aib]HGTFTSDYSILLEEQAAREFIEWLLAGGPSSGALQAPGQAPGASHLSTAQTARLSAELHRLK(Chem. 28)TLPRTETGSGSP-NH2 | 11.1
Compound 12 (peptide) peptide: H[Aib]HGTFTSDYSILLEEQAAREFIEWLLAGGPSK([AEEA-AEEA-γGlu-C16 diacid])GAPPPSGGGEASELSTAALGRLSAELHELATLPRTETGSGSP-NH2 | 10.2
Compound 84 (peptide) peptide: H[Aib]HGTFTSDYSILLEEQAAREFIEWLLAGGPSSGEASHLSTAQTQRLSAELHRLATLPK([AEEA-AEEA-γGlu-C18 diacid])TETGSGSP-NH2 | 25.9

Looking for the measured hGLP-1R Potency, 1% HSA, EC50 [pM] of Compound 69 (peptide) peptide: H[Aib]HGTFTSDYSILLEEQAAREFIEWLLAGGPSRGEASHLSTAQTQRLSAELHK([AEEA-AEEA-γGlu-C18 diacid])LATLPRTETGSGSP-NH2 , can you help? 20.4

Cool, now Compound 58 (reading uncertain) peptide: Y[Aib]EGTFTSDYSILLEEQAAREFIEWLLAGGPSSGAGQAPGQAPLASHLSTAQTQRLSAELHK(Chem. 28)LATLPRTETGSGSP-NH2 25.6

Cool, now Compound 36 (reading uncertain) peptide: H[Aib]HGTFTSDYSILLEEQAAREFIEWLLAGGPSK(Chem. 28)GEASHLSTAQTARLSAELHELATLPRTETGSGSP-NH2 208

Each recorded value in this set is attributed to patent US20260174875A1.
